# System: biotinyl-Val-oxazolone
# TEST_NAME: self-aminoacylation, catalytic enhancement (BVO) (fold over background); higher = more active; k-Seq, kA / k0A0; sequences stand for … in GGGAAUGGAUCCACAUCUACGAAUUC…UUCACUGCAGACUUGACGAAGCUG
This sample holds only a part of the variants without activity.
Kindly supply the reported self-aminoacylation values for the records listed here.
Just the number, please, no unit after it.

// self-aminoacylation lookup, key: AUUACCCUGGUUAUCUAGUGA [Fam2.1 aminoacylation ribozyme variant] 6.4

// self-aminoacylation lookup, key: AUUCACAUAGGUCUUCGGGUG [Fam2.2 aminoacylation ribozyme variant] 4.59

// self-aminoacylation lookup, key: CCACACCUCAAGCAAUCGGCC [Fam1B.1 aminoacylation ribozyme variant] 2.42

// self-aminoacylation lookup, key: AUGUUUGCUAAUAGUCGCAGG [Fam3.1 aminoacylation ribozyme variant] 1.33

// self-aminoacylation lookup, key: CUACGUCAAACAAUCCGUCUG [Fam1A.1 aminoacylation ribozyme variant] 1.24

// self-aminoacylation lookup, key: CUACUUCAAACAAUCGCUCUA [Fam1A.1 aminoacylation ribozyme variant] 0.948

// self-aminoacylation lookup, key: AUUACCCUGCUGAUCGAGUGA [Fam2.1 aminoacylation ribozyme variant] 1.67

// self-aminoacylation lookup, key: AUUACUCUGGUCGUCGAGUGA [Fam2.1 aminoacylation ribozyme variant] 1.16

// self-aminoacylation lookup, key: CCACACUUGACGCAAUCGGUC [Fam1B.1 aminoacylation ribozyme variant] 1.43

* * *

# System: biotinyl-Val-oxazolone
# TEST_NAME: self-aminoacylation, catalytic enhancement (BVO) (fold over background); higher = more active; k-Seq, kA / k0A0; sequences stand for … in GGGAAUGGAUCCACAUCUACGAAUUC…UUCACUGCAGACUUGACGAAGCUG
This sample holds only a part of the variants without activity.
Cut-off 3 on self-aminoacylation, inclusive. At or above means satisfied; below means not satisfied.

Entry CCCCACUUCAGGCAAUCGGUC [Fam1B.1 aminoacylation ribozyme variant] : is its self-aminoacylation no less than 3? not satisfied

Entry AUUAUCCUAGUCAUCGAGUGA [Fam2.1 aminoacylation ribozyme variant] : is its self-aminoacylation no less than 3? satisfied

Entry CUACUUCAAAGAAUGGGUCUG [Fam1A.1 aminoacylation ribozyme variant] : is its self-aminoacylation no less than 3? not satisfied

Entry CUACUUAAAACAAUCGCUCUG [Fam1A.1 aminoacylation ribozyme variant] : is its self-aminoacylation no less than 3? not satisfied

Entry AUUAACCUCGGUCAUCGGGUG [Fam2.2 aminoacylation ribozyme variant] : is its self-aminoacylation no less than 3? satisfied

Entry AUUGACCUAGGUCAUGGGGUG [Fam2.2 aminoacylation ribozyme variant] : is its self-aminoacylation no less than 3? not satisfied

Entry AUUCACCUAGGUCAUCGAGUU [Fam2.2 aminoacylation ribozyme variant] : is its self-aminoacylation no less than 3? not satisfied

Entry AUCCACCUGGGUCAUCGGGUG [Fam2.2 aminoacylation ribozyme variant] : is its self-aminoacylation no less than 3? satisfied

* * *

Kindly supply the reported self-aminoacylation values for the records listed here.
# Test system: biotinyl-Leu-oxazolone
# TEST_NAME: self-aminoacylation, catalytic enhancement (BLO) (fold over background); higher = more active; k-Seq, kA / k0A0; sequences stand for … in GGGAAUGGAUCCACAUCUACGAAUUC…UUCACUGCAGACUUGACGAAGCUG
This sample holds only a part of the variants without activity.
Just the number, please, no unit after it.

// self-aminoacylation lookup, key: CUACUUCCAACAAUCGGUCUG [Fam1A.1 aminoacylation ribozyme variant] 0.702

// self-aminoacylation lookup, key: AUUCAGCUAGGUCGUCGGGUG [Fam2.2 aminoacylation ribozyme variant] 3.24

// self-aminoacylation lookup, key: CUACACUUCAAGCAAUCAGUC [Fam1B.1 aminoacylation ribozyme variant] 0.754

// self-aminoacylation lookup, key: AUUCACCUAGGUUAUAGGGUG [Fam2.2 aminoacylation ribozyme variant] 4

// self-aminoacylation lookup, key: AAGCUUGCGAAUAGUCGCAAG [Fam3.1 aminoacylation ribozyme variant] 2.2

* * *

# Test system: biotinyl-Leu-oxazolone
# TEST_NAME: self-aminoacylation, catalytic enhancement (BLO) (fold over background); higher = more active; k-Seq, kA / k0A0; sequences stand for … in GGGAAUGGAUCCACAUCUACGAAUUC…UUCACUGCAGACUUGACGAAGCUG
Variants at the floor of the assay were thinned out.
VALUE_TYPE: self-aminoacylation

// self-aminoacylation lookup, key: AUUACCCUAGGCAUCGAGUGA [Fam2.1 aminoacylation ribozyme variant] 5.37

// self-aminoacylation lookup, key: AUUCAUCUAGGUCGUCGGGUG [Fam2.2 aminoacylation ribozyme variant] 2.27

// self-aminoacylation lookup, key: AUUACUCUGGUCACCGAGUGA [Fam2.1 aminoacylation ribozyme variant] 8.45

// self-aminoacylation lookup, key: CCACACUUCAAGCAAACGGUU [Fam1B.1 aminoacylation ribozyme variant] 1.34

// self-aminoacylation lookup, key: CUACUUCAAACAAUCCGUCUC [Fam1A.1 aminoacylation ribozyme variant] 0.44

// self-aminoacylation lookup, key: AUUACCCUGGUCAUCGAGAGA [Fam2.1 aminoacylation ribozyme variant] 1.72

// self-aminoacylation lookup, key: CCAGACUUCAAGCCAUCGGUC [Fam1B.1 aminoacylation ribozyme variant] 1.24

// self-aminoacylation lookup, key: CUACUUCAAACAAUCCGUGUG [Fam1A.1 aminoacylation ribozyme variant] 3.84

// self-aminoacylation lookup, key: CUAUUUCAAAAAAUCGGUCUG [Fam1A.1 aminoacylation ribozyme variant] 1.18

// self-aminoacylation lookup, key: AUGUGUGCUAAUAGUCGCAAG [Fam3.1 aminoacylation ribozyme variant] 1.36

// self-aminoacylation lookup, key: AUUACCAUCGUCAUCGAGUGA [Fam2.1 aminoacylation ribozyme variant] 3.6

// self-aminoacylation lookup, key: AAUGCCCUGGUCAUCGAGUGA [Fam2.1 aminoacylation ribozyme variant] 9.96

// self-aminoacylation lookup, key: AUUACCCUGGGCACCGAGUGA [Fam2.1 aminoacylation ribozyme variant] 6.68

// self-aminoacylation lookup, key: AUUACCCUGUUCAUCGAGUUA [Fam2.1 aminoacylation ribozyme variant] 1.12

// self-aminoacylation lookup, key: AUUCACCAAGGUCAUCGGGCG [Fam2.2 aminoacylation ribozyme variant] 4.59

// self-aminoacylation lookup, key: AUUCACAUAGGUCUUCGGGUG [Fam2.2 aminoacylation ribozyme variant] 5.35

// self-aminoacylation lookup, key: AUUAACUUAGGUCAUCGGGUG [Fam2.2 aminoacylation ribozyme variant] 4.73

// self-aminoacylation lookup, key: CCACACUUCAAGCAUUCGCUC [Fam1B.1 aminoacylation ribozyme variant] 2.41

* * *

# Test system: biotinyl-Met-oxazolone
# TEST_NAME: self-aminoacylation, catalytic enhancement (BMO) (fold over background); higher = more active; k-Seq, kA / k0A0; sequences stand for … in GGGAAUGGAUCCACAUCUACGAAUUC…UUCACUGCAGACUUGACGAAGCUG
Variants at the floor of the assay were thinned out.
Cut-off 2 on self-aminoacylation, inclusive. At or above means MET; below means NOT MET.

Entry AUUCUCCUAGGUCAUCGGAUG [Fam2.2 aminoacylation ribozyme variant] : is its self-aminoacylation no less than 2? NOT MET

Entry AAGUUCGUUAAUAGUCGCAAG [Fam3.1 aminoacylation ribozyme variant] : is its self-aminoacylation no less than 2? NOT MET

Entry AUUCACCUAGGUCUUCGGGGG [Fam2.2 aminoacylation ribozyme variant] : is its self-aminoacylation no less than 2? MET

Entry AAGUUUGCUAAUAGUUGGAAG [Fam3.1 aminoacylation ribozyme variant] : is its self-aminoacylation no less than 2? NOT MET

Entry AUUCACAUAGGUCAUUGGGUG [Fam2.2 aminoacylation ribozyme variant] : is its self-aminoacylation no less than 2? MET

Entry AAGUUUGCUAAUAGGUGCAAG [Fam3.1 aminoacylation ribozyme variant] : is its self-aminoacylation no less than 2? NOT MET

Entry AUUACCUUGGUCAUAGAGUGA [Fam2.1 aminoacylation ribozyme variant] : is its self-aminoacylation no less than 2? MET

Entry AAGUUUGCUAAUCGUCGCUAG [Fam3.1 aminoacylation ribozyme variant] : is its self-aminoacylation no less than 2? NOT MET

Entry CUACUUCAAACAUUCGGUCUU [Fam1A.1 aminoacylation ribozyme variant] : is its self-aminoacylation no less than 2? NOT MET

Entry AUUGACCUAGGUCAUCGGUUG [Fam2.2 aminoacylation ribozyme variant] : is its self-aminoacylation no less than 2? NOT MET

Entry AUUACCCUGGUCGUCGCGUGA [Fam2.1 aminoacylation ribozyme variant] : is its self-aminoacylation no less than 2? MET

Entry AUUACACUUGUCAUCGAGUGA [Fam2.1 aminoacylation ribozyme variant] : is its self-aminoacylation no less than 2? MET

Entry UCACGCUUCAAGCAAUCGGUC [Fam1B.1 aminoacylation ribozyme variant] : is its self-aminoacylation no less than 2? NOT MET

Entry AUGCACCUAGGUGAUCGGGUG [Fam2.2 aminoacylation ribozyme variant] : is its self-aminoacylation no less than 2? MET

Entry AAGUUUGCUAAUGGUCCCAAG [Fam3.1 aminoacylation ribozyme variant] : is its self-aminoacylation no less than 2? NOT MET

Entry AAGUUUGCUAAUAGUAGCACG [Fam3.1 aminoacylation ribozyme variant] : is its self-aminoacylation no less than 2? NOT MET

Entry AUUCAGCUAGGUCAUUGGGUG [Fam2.2 aminoacylation ribozyme variant] : is its self-aminoacylation no less than 2? MET

Entry AAGUUUGCUAAUACUGGCAAG [Fam3.1 aminoacylation ribozyme variant] : is its self-aminoacylation no less than 2? NOT MET

Entry AAGUUUGCUAAUAGUCACUAG [Fam3.1 aminoacylation ribozyme variant] : is its self-aminoacylation no less than 2? NOT MET

Entry AUUACCCUGGUCACCGAAUGA [Fam2.1 aminoacylation ribozyme variant] : is its self-aminoacylation no less than 2? NOT MET

Entry AUUCCCAUGGUCAUCGAGUGA [Fam2.1 aminoacylation ribozyme variant] : is its self-aminoacylation no less than 2? MET

Entry GCACACGUCAAGCAAUCGGUC [Fam1B.1 aminoacylation ribozyme variant] : is its self-aminoacylation no less than 2? MET

Entry AAUCACCUAGGUCAACGGGUG [Fam2.2 aminoacylation ribozyme variant] : is its self-aminoacylation no less than 2? MET

Entry CCACACUUCAAGCAAUCGGCG [Fam1B.1 aminoacylation ribozyme variant] : is its self-aminoacylation no less than 2? MET

Entry AUUACUCUGGUCAUCGAGUGG [Fam2.1 aminoacylation ribozyme variant] : is its self-aminoacylation no less than 2? MET

Entry CCACAAUUCAAGUAAUCGGUC [Fam1B.1 aminoacylation ribozyme variant] : is its self-aminoacylation no less than 2? NOT MET

Entry AGGUUUGCUAUUAGUCGCAAG [Fam3.1 aminoacylation ribozyme variant] : is its self-aminoacylation no less than 2? NOT MET

Entry AAGUUGGUUAAUAGUCGCAAG [Fam3.1 aminoacylation ribozyme variant] : is its self-aminoacylation no less than 2? NOT MET

Entry CUACACUUCAAACAAUCGGUC [Fam1B.1 aminoacylation ribozyme variant] : is its self-aminoacylation no less than 2? NOT MET

Entry CUACUUCCAACACUCGGUCUG [Fam1A.1 aminoacylation ribozyme variant] : is its self-aminoacylation no less than 2? NOT MET

Entry AUUACCCUGGUCCCCGAGUGA [Fam2.1 aminoacylation ribozyme variant] : is its self-aminoacylation no less than 2? MET

Entry AUUCGCCUAGAUCAUCGGGUG [Fam2.2 aminoacylation ribozyme variant] : is its self-aminoacylation no less than 2? MET

Entry CUACUUCAAACAAUCCGUGUG [Fam1A.1 aminoacylation ribozyme variant] : is its self-aminoacylation no less than 2? MET

Entry AUUCACCUAGGACAACGGGUG [Fam2.2 aminoacylation ribozyme variant] : is its self-aminoacylation no less than 2? MET

Entry CCACUCUUCAAGCAGUCGGUC [Fam1B.1 aminoacylation ribozyme variant] : is its self-aminoacylation no less than 2? NOT MET
